Source: the supplement of paper PMC8866396

Task for the reader: assign each of the following compounds its reported cell viability.
Test system: IL-6-GFP PC-9GR
test-protocol: cell viability (CCK-8 OD) relative to DMSO control (fraction of control); higher = more viable cells
details: compound concentration: 10 uM; treatment time: 48 h
Form field (numeric): enter value without unit.

Inquiry: Give cell viability for the following compound: Cc1cnc(NC(=O)C2=C(O)c3ccccc3S(=O)(=O)N2C)s1
Reply text: 1.21

Inquiry: Provide cell viability value for the following compound: Cc1c(N)c(=O)n(-c2ccccc2)n1C [4-Aminoantipyrine]
Reply text: 0.98

Inquiry: Answer with the recorded cell viability for the compound listed here: Cc1ccc(C2OC(CO)C(O)C(O)C2O)cc1Cc1ccc(-c2ccc(F)cc2)s1 (stereo not drawn)
Reply text: 1.14

Inquiry: Query cell viability for O=C([O-])Cc1ccccc1Nc1c(Cl)cccc1Cl.[Na+] [Diclofenac Sodium]
Reply text: 1.3

Inquiry: Give me measured cell viability, please, for this compound: O=c1c(-c2ccc(O)cc2)coc2cc(O)cc(O)c12
Reply text: 0.975

Inquiry: Find the measured cell viability of Nc1nnc(-c2cccc(Cl)c2Cl)c(N)n1 and report it.
Reply text: 1.12

Inquiry: Determine its reported cell viability: CCCCOc1ccc(CC(=O)NO)cc1
Reply text: 1.2

Inquiry: Indicate the recorded cell viability value for this compound: COc1cc(CNC(=O)CCCC/C=C\C(C)C)ccc1O
Reply text: 0.332

Inquiry: Look up cell viability of O=C(O)CCCN1CCC(OC(c2ccc(Cl)cc2)c2ccccn2)CC1 (stereo not drawn) and report it.
Reply text: 0.797

Inquiry: Identify the reported cell viability for the following entry. N.N.O=C([O-])C1(C(=O)[O-])CCC1.[Pt+2]
Reply text: 1.19

Inquiry: Return reported cell viability. Input compound: O=C(O)Cc1ccccc1Nc1c(Cl)cccc1Cl
Reply text: 1.07

Inquiry: Consider the compound Cc1cc2c(C(N)=O)cccc2n1-c1nc2c(c(NCc3ccccc3)n1)COCC2 and give its recorded cell viability.
Reply text: 0.204

Inquiry: Specify reported cell viability for the compound shown: CC(=O)C1CCC2C3CC(C)C4=CC(=O)CCC4(C)C3C(O)CC12C (stereo not drawn)
Reply text: 0.958

Inquiry: Give reported cell viability value for CCC1(O)C(=O)OCc2c1cc1n(c2=O)Cc2cc3c(CN(C)C)c(O)ccc3nc2-1 (stereo not drawn)
Reply text: 0.333

Inquiry: Indicate the recorded cell viability value for this compound: COc1ccc(S(=O)(=O)N(C(C)=O)c2ccccc2/C=C/c2cc[n+]([O-])cc2)cc1
Reply text: 0.674

Inquiry: Please list cell viability recorded for the compound CC(C)Cc1ccc(C(C)C(=O)O)cc1 (stereo not drawn)
Reply text: 1.32

Inquiry: Look up cell viability of CC1=C(/C=C/C(C)=C/C=C/C(C)=C/C(=O)Nc2ccc(O)cc2)C(C)(C)CCC1 [Fenretinide] and report it.
Reply text: 0.47

Inquiry: Entry Nc1ncn(C2OC(CO)C(O)C2O)c(=O)n1 (stereo not drawn) needs its cell viability filled in; supply it.
Reply text: 1.04

* * *

Test system: IL-6-GFP PC-9
test-protocol: cell viability (CCK-8 OD) relative to DMSO control (fraction of control); higher = more viable cells
details: compound concentration: 10 uM; treatment time: 48 h
Provide the recorded cell viability for the entries that follow.
Kindly provide the number alone.

Inquiry: Give measured cell viability for NC1CCCCC1N.O=C([O-])C(=O)[O-].[Pt+2] (stereo not given) (IL-6-GFP PC-9).
Reply text: 1.2

Inquiry: System IL-6-GFP PC-9. Read-out cell viability. Item Nc1nc(CC(=O)Nc2ccc(CCNCC(O)c3ccccc3)cc2)cs1 (stereo not given) . Report value.
Reply text: 0.791

Inquiry: Enter cell viability (test system IL-6-GFP PC-9) for Nc1nc(Cl)nc2c1ncn2C1CC(O)C(CO)O1 (stereo not given)
Reply text: 0.762

Inquiry: Please indicate recorded cell viability of O=S1(=O)CCN(CN2CCS(=O)(=O)NC2)CN1 measured with IL-6-GFP PC-9.
Reply text: 1.23

Inquiry: Identify measured cell viability obtained with IL-6-GFP PC-9 for C=C(NC(=O)C(=C)NC(=O)c1csc(C2=NC3c4csc(n4)C4NC(=O)c5csc(n5)C(C(C)(O)C(C)O)NC(=O)C5CSC(=N5)/C(=C/C)NC(=O)C(C(C)O)NC(=O)c5csc(n5)C3(CC2)NC(=O)C(C)NC(=O)C(=C)NC(=O)C(C)NC(=O)C(C(C)CC)NC2C=Cc3c(C(C)O)cc(nc3C2O)C(=O)OC4C)n1)C(N)=O (stereo not given) .
Reply text: 0.412

Inquiry: Specify cell viability for Cc1nc(Nc2ncc(C(=O)Nc3c(C)cccc3Cl)s2)cc(N2CCN(CCO)CC2)n1 , system IL-6-GFP PC-9.
Reply text: 0.206

Inquiry: Fill in: cell viability on IL-6-GFP PC-9, entry O=NN(CCCl)C(=O)NCCCl
Reply text: 1.26

Inquiry: Give cell viability for this entry on IL-6-GFP PC-9: CCC1(O)C(=O)OCc2c1cc1n(c2=O)Cc2cc3c(CN(C)C)c(O)ccc3nc2-1 (stereo not given)
Reply text: 0.343

Inquiry: // output cell viability; input CCCCCCCCc1ccc(CCC(N)(CO)CO)cc1 ; system IL-6-GFP PC-9
Reply text: 0.924

Inquiry: Find cell viability for O=C(NCC1CN(c2ccc(N3CCOCC3=O)cc2)C(=O)O1)c1ccc(Cl)s1 (stereo not given) on IL-6-GFP PC-9 and write it down.
Reply text: 0.98

Inquiry: Report measured cell viability on IL-6-GFP PC-9; entry: Cc1c(C(=O)Nc2ccc(N3CC(C)OC(C)C3)nc2)cccc1-c1ccc(OC(F)(F)F)cc1 (stereo not given) [Sonidegib (Erismodegib, NVP-LDE225)]
Reply text: 1.08

Inquiry: Provide measured cell viability on IL-6-GFP PC-9 for CCC(c1ccc(O)cc1)C(CC)c1ccc(O)cc1 (stereo not given) please.
Reply text: 1.16

Inquiry: Provide IL-6-GFP PC-9 cell viability reading for Nc1nc(=O)c2c(CCc3ccc(C(=O)NC(CCC(=O)[O-])C(=O)[O-])cc3)c[nH]c2[nH]1.[Na+].[Na+] (stereo not given) .
Reply text: 0.635

Inquiry: Please respond with reported cell viability (system IL-6-GFP PC-9) for COC(=O)CC(O)(CCCC(C)(C)O)C(=O)OC1C(OC)=CC23CCCN2CCc2cc4c(cc2C13)OCO4 (stereo not given) .
Reply text: 0.358

Inquiry: Report measured cell viability on IL-6-GFP PC-9; entry: Nc1ccc(F)cc1NC(=O)c1ccc(CNC(=O)/C=C/c2cccnc2)cc1 [Tucidinostat (Chidamide)]
Reply text: 0.606

* * *

Field: cell viability. Provide a value for each of the compounds that follow.
Tested on: IL-6-GFP PC-9
test-protocol: cell viability (CCK-8 OD) relative to DMSO control (fraction of control); higher = more viable cells
details: compound concentration: 10 uM; treatment time: 48 h

Inquiry: Under IL-6-GFP PC-9: report cell viability of NC1CN(c2c(F)cc3c(=O)c(C(=O)O)cn(C4CC4F)c3c2Cl)CC12CC2.NC1CN(c2c(F)cc3c(=O)c(C(=O)O)cn(C4CC4F)c3c2Cl)CC12CC2.O.O.O (centres undefined) [Sitafloxacin Hydrate] .
Reply text: 1.01

Inquiry: Report cell viability from IL-6-GFP PC-9 testing of COc1cc2c3cc1Oc1c(OC)c(OC)cc4c1C(Cc1ccc(O)c(c1)Oc1ccc(cc1)CC3N(C)CC2)N(C)CC4 (centres undefined)
Reply text: 1.08

Inquiry: Check IL-6-GFP PC-9 data and give cell viability for COC1CC2CCC(C)C(O)(O2)C(=O)C(=O)N2CCCCC2C(=O)OC(C(C)CC2CCC(OP(C)(C)=O)C(OC)C2)CC(=O)C(C)/C=C(\C)C(O)C(OC)C(=O)C(C)CC(C)/C=C/C=C/C=C/1C (centres undefined) .
Reply text: 0.571

Inquiry: Send back IL-6-GFP PC-9 cell viability of CS(=O)(=O)n1cc2c(n1)CN(C1COC(c3cc(F)ccc3F)C(N)C1)C2 (centres undefined) only.
Reply text: 1.02

Inquiry: Write cell viability of Cc1nc(-c2ccc(OCC(C)C)c(C#N)c2)sc1C(=O)O ; system used: IL-6-GFP PC-9
Reply text: 1.12

Inquiry: For IL-6-GFP PC-9, give cell viability of the listed compound: CC12C=CC(=O)C=C1CCC1C3CC(O)C(O)(C(=O)CO)C3(C)CC(O)C12F (centres undefined)
Reply text: 0.805

Inquiry: Write down measured cell viability (IL-6-GFP PC-9) for this compound. CCCCC(CC)CN1CN(CC(CC)CCCC)CC(C)(N)C1 (centres undefined)
Reply text: 1.15

Inquiry: Jot down cell viability (IL-6-GFP PC-9) of CCCCCCCCCCCCCCCCCCOP(=O)([O-])OC1CC[N+](C)(C)CC1 .
Reply text: 0.786

Inquiry: Name the recorded cell viability of O=C(O)CCCN1CCC(OC(c2ccc(Cl)cc2)c2ccccn2)CC1 (centres undefined) , assay system IL-6-GFP PC-9.
Reply text: 1.06

Inquiry: GET cell viability | system: IL-6-GFP PC-9 | item: CC1CC2C3CC(F)C4=CC(=O)C=CC4(C)C3(F)C(O)CC2(C)C1(O)C(=O)CO (centres undefined)
Reply text: 0.833

Inquiry: Name the value of cell viability reported for COc1cc2c(Nc3ccc(Br)cc3F)ncnc2cc1OCC1CCN(C)CC1 [Vandetanib (ZD6474)] when tested on IL-6-GFP PC-9.
Reply text: 0.551

Inquiry: Output reported cell viability of the compound O=C(OCCOCCO)c1ccccc1Nc1cccc(C(F)(F)F)c1 [Etofenamate] on IL-6-GFP PC-9.
Reply text: 1.24

Inquiry: Provide measured cell viability on IL-6-GFP PC-9 for CCN(CC)Cc1cc(Nc2ccnc3cc(Cl)ccc23)ccc1O.Cl.Cl.O.O [Amodiaquine dihydrochloride dihydrate] please.
Reply text: 0.756

Inquiry: System IL-6-GFP PC-9. Read-out cell viability. Item CNC(=O)c1c(C)oc2cc(Oc3ncnc4cc(OC)c(OC)cc34)ccc12 . Report value.
Reply text: 1.12
